target_under_test: Cytochrome P450 2C19 (Homo sapiens)
procedure_text: qHTS Assay for Inhibitors and Substrates of Cytochrome P450 2C19 (AID 899); further: nearly all actives have a fitted effect of over 60% in size
setup_conditions: recombinant CYP2C19, luciferin-H EGE luminescence; series mostly up to 11.4 µM
Records with an inconclusive call do not appear. The source made the active and inactive calls. The call rests on the fitted dose curve; in most records, active means well fitted inhibition curve with a large enough effect; inconclusive means small, poorly fitted or top-dose-only effect; inactive means no such curve, though single readings can be large or run the other way.
Form entry, call: pick from active, inactive

Check out these entries, answers already filled in.
Req: Dear colleague, could you share the recorded outcome for `COc1ccccc1-c1ccc2ncnc(NCc3cccnc3)c2c1` when you have a moment?
Resp: active

Req: Dear colleague, could you share the recorded outcome for `CC1=CC(C)(C)Nc2ccc(CSc3ccccc3)cc21` when you have a moment?
Resp: active

Req: Dear colleague, could you share the recorded outcome for `COc1ccc([C@@H](Nc2ccccn2)c2cc(C(C)(C)C)cc(C(C)(C)C)c2O)cc1` when you have a moment?
Resp: active

Req: Dear colleague, could you share the recorded outcome for `Nc1ccc2[nH]cc(CCC(=O)O)c2c1` when you have a moment?
Resp: inactive

Req: Dear colleague, could you share the recorded outcome for `CO[C@@H]1/C=C\O[C@@]2(C)Oc3c(C)c(O)c4c(c3C2=O)C(=N[C@H]2CC[C@H](O)O[C@@H]2C)C=C(NC(=O)/C(C)=C\C(=O)[C@@H]2C[C@@H]2[C@@H](O)[C@H](C)[C@@H](O)[C@H](C)[C@H](OC(C)=O)[C@@H]1C)C4=O` when you have a moment?
Resp: active

Continuing:
Req: Dear colleague, could you share the recorded outcome for `CS[C@]12C(=O)C[C@]3(C)[C@@H](CC[C@@]3(O)C(=O)CO)[C@@H]1CCC1=CC(=O)CC[C@]12C` when you have a moment?
Resp: active

Req: Dear colleague, could you share the recorded outcome for `CC(=O)OCC(=O)[C@@]1(O)CC[C@@H]2[C@@H]3CCC4=CC(=O)CC[C@@]4(C)[C@H]3C(=O)C[C@]21C` when you have a moment?
Resp: inactive

Req: Dear colleague, could you share the recorded outcome for `Cc1[nH]n(-c2ccc(S(=O)(=O)O)cc2)c(=O)c1N=Nc1ccccc1` when you have a moment?
Resp: inactive

Req: Dear colleague, could you share the recorded outcome for `Nc1ccccc1S[C@@H](C[N+](=O)[O-])c1ccc2c(c1)OCO2` when you have a moment?
Resp: active

Req: Dear colleague, could you share the recorded outcome for `O=C1C(Cl)=C(Nc2ccc(S(=O)(=O)Nc3ccccn3)cc2)C(=O)c2ccccc21` when you have a moment?
Resp: active

Req: Dear colleague, could you share the recorded outcome for `CC(C)(C)COS(=O)OCC(C)(C)C` when you have a moment?
Resp: inactive

Req: Dear colleague, could you share the recorded outcome for `CC[C@H]1C(=O)OC[C@H]1Cc1cncn1C` when you have a moment?
Resp: inactive
